Tested on: parental cancer cell line KB-3-1
MEASUREMENT_DESCRIPTION: MDR reversal study (MTT), parental cancer cell line
Format: cell-based
CONDITION_NOTES: Table 5, no reversal agent, read-out: IC50, chemotherapeutic alone
MEASURED_QUANTITY: IC50 (nM)
Numbers only, in nM.

Bench note, parental cancer cell line KB-3-1: entry N.N.[Cl][Pt][Cl] [Cisplatin] , its IC50 = 1790

meta.source: patent US11458188B2
